Affinity increase reference
- Target under test: T1, AFP158/HLA-A*02:01 complex (human)
- T1 construct: flowed as analyte in SPR
- Test name: SPR, fold vs AS170036 VL1VH1;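 further: crude scFv muteins immobilised on a sensor chip, peptide–MHC complex passed over at several concentrations, binding then buffer-driven dissociation, KD estimated from on- and off-rates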
Quick note: give the figure in fold, leave out the unit.

# Binder, Measurement type, Measured number
data = [
    ("AS170036 VL1VH1-56Y98Q108A (scFv, also called 46-AS170036 VL1VH1-56Y98Q108A) scFv: QSALTQPRSVSGSPGQSVTISCAGTSSDVGSENYVSWYQQHPGKAPKLMIYQVNKRASGVPDRFSGSKSGNTASLTISGLQAEDEADYYCASYRSSDQNIVFGGGTKLTVLGGGGSGGGGSGGGGSEVQLVESGGGLVQPGGSLRLSCAASGFTFSSYAMSWVRQAPGKGLEWVSTINSGTYSPYYADSVKGRFTISRDNSKNTLYLQMNSLRAEDTAVYYCAKNFFDGSWFLAPPAMDYWGQGTLVTVSSHHHHHH", "Affinity increase", 183),
]

Kindly review the next binder as well.
Returns the measured Affinity increase for the input binder. Input: AS170036 VL1VH1-56N98Q108A (scFv, also called 55-AS170036 VL1VH1-56N98Q108A) scFv: QSALTQPRSVSGSPGQSVTISCAGTSSDVGSENYVSWYQQHPGKAPKLMIYQVNKRASGVPDRFSGSKSGNTASLTISGLQAEDEADYYCASYRSSDQNIVFGGGTKLTVLGGGGSGGGGSGGGGSEVQLVESGGGLVQPGGSLRLSCAASGFTFSSYAMSWVRQAPGKGLEWVSTINSGTNSPYYADSVKGRFTISRDNSKNTLYLQMNSLRAEDTAVYYCAKNFFDGSWFLAPPAMDYWGQGTLVTVSSHHHHHH 54.1
